Kindly state AUC for each of the entries shown.
Assay: Pharmacokinetic analysis in C57BL/6 mice after gavage administration
Assay type: in vivo
Conditions: male, mouse, plasma, po, 10 mg/kg gavage, 0.5% MC, mean ± SEM of four mice
Numbers only, in ng·h/mL.

INSERT INTO results (compound, readout_units, result_value) VALUES
  ('Cc1ccc2c(c1)CCCN2C(=O)COc1ccc(OCC(=O)O)c(C)c1 [Compound 11g]', 'ng·h/mL', 6710);

We now examine a further compound.
Incoming: // returns reported AUC for input Cc1ccc2c(c1)CCCN2C(=O)COc1ccc(C(C)CC(=O)O)cc1 (centres unmarked) [Compound 11b]
Outgoing: 9050

###

Kindly state melting point for each of the entries shown.

INSERT INTO measurements (molecule, result_value) VALUES
  ('Cc1cc(OCC(=O)N2CCCc3cc(F)ccc32)ccc1OCC(=O)O [Compound 11f]', '152 to 153 °C'),
  ('COc1ccc2c(c1)CCCN2C(=O)COc1ccc(OCC(=O)O)c(C)c1 [Compound 11h]', '141 to 142 °C'),
  ('Cc1ccc2c(c1)CCCN2C(=O)COc1ccc(OCC(=O)O)c(C)c1 [Compound 11g]', '147 to 148 °C');

For each of the molecules below, note its melting point.
1. Cc1cc(OCC(=O)N2CCCc3ccccc32)ccc1OCC(=O)O [Compound 11e]
2. CC(CC(=O)O)c1ccc(OCC(=O)N2CCCc3ccccc32)cc1 (stereo not drawn) [Compound 11a]
3. CC(CC(=O)O)c1ccc(OCC(=O)N2CCCc3cc(F)ccc32)cc1 (stereo not drawn) [Compound 11d]

Outgoing:
1. 138 to 139 °C
2. 117 to 118 °C
3. 124 to 130 °C

###

Molecular target: UniProtKB Q5NUL3
Sequence (Q5NUL3 whole entry): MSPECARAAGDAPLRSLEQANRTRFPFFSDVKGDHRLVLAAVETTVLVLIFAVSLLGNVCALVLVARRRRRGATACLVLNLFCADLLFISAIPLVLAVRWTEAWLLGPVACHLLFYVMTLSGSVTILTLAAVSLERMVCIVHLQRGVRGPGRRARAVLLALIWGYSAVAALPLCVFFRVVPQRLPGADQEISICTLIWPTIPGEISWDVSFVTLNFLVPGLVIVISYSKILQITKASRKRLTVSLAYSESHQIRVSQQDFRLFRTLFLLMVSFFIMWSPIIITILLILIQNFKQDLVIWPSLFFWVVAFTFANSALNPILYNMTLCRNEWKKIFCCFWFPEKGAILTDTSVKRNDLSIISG
Assay: Ca2+ influx assay in CHO cells stably expressing human GPR120
Details: CHO cells expressing human GPR120, Ca2+ signal, mean of three determinations
property_name: pEC50
One number for each entry, as −log10 of the molar value.

INSERT INTO results (compound, property_name, result_value) VALUES
  ('CC(CC(=O)O)c1ccc(OCC(=O)N2CCCc3cc(F)ccc32)cc1 (stereo not drawn) [Compound 11d]', 'pEC50', 6.73);

For each of the compounds below, note its pEC50.
1. CC(CC(=O)O)c1ccc(OCC(=O)N2CCCc3ccccc32)cc1 (stereo not drawn) [Compound 11a]
2. COc1ccc2c(c1)CCCN2C(=O)COc1ccc(C(C)CC(=O)O)cc1 (stereo not drawn) [Compound 11c]

Outgoing:
[6.95, 7.00]
